In this section, each of the compounds is paired with its reported CC50.
Experiment: Cytotoxicity in mock-infected human MT4 cells assessed as reduction in cell viability by MTT assay
Type: cell-based
RECORDED_METRIC: CC50

1. COc1cccc(OC)c1Oc1cnc([N+](=O)[O-])c(Nc2ccc(C#N)cc2)c1 > 319 µM
2. Cc1cc(Br)cc(C)c1Oc1cnc([N+](=O)[O-])c(Nc2ccc(C#N)cc2)c1 > 285 µM
3. N#Cc1ccc(Nc2cc(Oc3c(Cl)cc(Cl)cc3Cl)cnc2N)cc1 179 µM
4. O=C1Nc2ccc(Cl)cc2[C@@](C#CC2CC2)(C(F)(F)F)O1 > 6.34 µM
5. N#Cc1ccc(Nc2cc(Oc3c(Br)cc(Br)cc3Br)cnc2N)cc1 27.7 µM
6. COc1cccc(OC)c1Oc1cnc(N)c(Nc2ccc(C#N)cc2)c1 > 345 µM
7. Cc1cc(Cl)cc(C)c1Oc1cnc([N+](=O)[O-])c(Nc2ccc(C#N)cc2)c1 > 317 µM
8. Cc1cccc(C)c1Oc1cnc([N+](=O)[O-])c(Nc2ccc(C#N)cc2)c1 > 347 µM
9. Cc1cc(C)c(Nc2cnc([N+](=O)[O-])c(Nc3ccc(C#N)cc3)c2)c(C)c1 168 µM
10. Cc1cc(Br)c(Oc2cnc([N+](=O)[O-])c(Nc3ccc(C#N)cc3)c2)c(Br)c1 84.3 µM
11. Cc1cccc(C)c1Nc1cnc([N+](=O)[O-])c(Nc2ccc(C#N)cc2)c1 6.27 µM
12. Cc1cc(C)c(Oc2cnc(N)c(Nc3ccc(C#N)cc3)c2)c(C)c1 32.1 µM
13. Cc1cccc(C)c1Oc1cnc(N)c(Nc2ccc(C#N)cc2)c1 > 378 µM
14. N#Cc1ccc(Nc2cc(Oc3c(F)cc(F)cc3F)cnc2[N+](=O)[O-])cc1 > 324 µM
15. Cc1cc(Br)c(Oc2cnc(N)c(Nc3ccc(C#N)cc3)c2)c(Br)c1 > 264 µM
16. Cc1ccnc2c1NC(=O)c1cccnc1N2C1CC1 > 15 µM
17. Cc1cc(Br)cc(C)c1Oc1cnc(N)c(Nc2ccc(C#N)cc2)c1 26.7 µM
18. Cc1cn([C@H]2C[C@H](N=[N+]=[N-])[C@@H](CO)O2)c(=O)[nH]c1=O > 7.48 µM
19. Cc1cc(C#N)cc(C)c1Oc1nc(Nc2ccc(C#N)cc2)nc(N)c1Br > 4.59 µM
20. N#Cc1ccc(Nc2cc(Oc3c(Cl)cc(Cl)cc3Cl)cnc2[N+](=O)[O-])cc1 > 287 µM
